Test system: PPARg:RXRa 270nM:90nM, anti-RXR (NR concentration 270 nM, RXRa partner concentration 90 nM)
test-description: PBM binding z-score (relative to random genomic background probes); higher = stronger binding; sequences stand for … in GC…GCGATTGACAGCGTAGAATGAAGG
Entry flag: true if PBM binding z-score reaches 3; false if it does not.

Query: Has TCGAGTTGGTCACGGAGGTCACACACGACGGGTA a recorded PBM binding z-score greater than or equal to 3?
Result: true

Query: Hi team, for AGAATGAGGTTCTTAAGATCAGGGAATTGCGGTC , is the recorded PBM binding z-score at or above 3?
Result: false

Query: Identify whether the reported PBM binding z-score of the following sequence is 3 or greater: AGAATGAAGTTACCAAAGATCAGGGAAACGCTTG
Result: false

Query: Has CCTTACGGGTCGCTCCAGGTTATAGCATCGGAGT a recorded PBM binding z-score greater than or equal to 3?
Result: false

Query: Tell me whether PBM binding z-score is at least 3 here: GGAACGAGGGCATTCGAGTTGATCGCATGGCGAT
Result: false
